experiment: modulators of CIT2-GFP expression in yeast, primary screen, S. cerevisiae, GFP fusion, multiplex flow cytometry (AID 1870); settings: 3 h, at 10 µM, stronger effect = higher value;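 also: barcoded CIT2-GFP strain pooled with four other GFP strains with rapamycin as positive control; median GFP fluorescence per well over plate mean of DMSO wells so 100% = DMSO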
I'd appreciate it if you could supply percent response of DMSO control values for the items below.
Answer format: numeric, % implied, no suffix.

May I ask what percent response of DMSO control has been recorded for CCOC(=O)c1ccc2[nH]c(C)c(CCC(C)=O)c(=O)c2c1 ?
109

May I ask what percent response of DMSO control has been recorded for COc1ccc2cc(CCC(C)=O)ccc2c1 ?
93

May I ask what percent response of DMSO control has been recorded for CC(NCCC(c1ccccc1)c1ccccc1)c1ccccc1 (stereo unspecified) ?
111

May I ask what percent response of DMSO control has been recorded for C[C@@H]1C[C@H]2[C@@H]3CCC4=CC(=O)C=C[C@]4(C)[C@@]3(F)[C@@H](O)C[C@]2(C)[C@H]1C(=O)CO ?
109

May I ask what percent response of DMSO control has been recorded for Nc1nc2ccc(OC(F)(F)F)cc2s1 ?
99.3

May I ask what percent response of DMSO control has been recorded for CCOC(=O)C1=C(N)Oc2c(oc(CO)cc2=O)C1c1ccc(F)c(F)c1 (stereo unspecified) ?
99.8

May I ask what percent response of DMSO control has been recorded for COc1ccc(CN(C)CCc2ccccn2)cc1OC ?
102

May I ask what percent response of DMSO control has been recorded for COc1ccc2oc(=O)c(C(=O)N3CCN(c4ccccc4)CC3)cc2c1 ?
101

May I ask what percent response of DMSO control has been recorded for CN1CCC(=C2c3ccccc3CC(=O)c3sccc32)CC1 ?
108

May I ask what percent response of DMSO control has been recorded for Clc1ccc(Cn2c(CN3CCCC3)nc3ccccc32)cc1 ?
107

May I ask what percent response of DMSO control has been recorded for CC1COc2c(N3CCN(C)CC3)c(F)cc3c(=O)c(C(=O)O)cn1c23 (stereo unspecified) ?
103
